Listing of recorded Kp uu by entry.
assay: Unbound tissue partition coefficient, ratio of drug level in liver to plasma in Wistar Han rat at 1 to 2 mg/kg, iv infused for 10 to 20 hrs by LC-MS/MS analysis; settings: liver/plasma
Lab note: record the figure alone, no unit after it.

Some solved entries appear below for comparison.
| structure-smiles-string | Kp uu |
| --- | --- |
| C[C@H]1c2cccc(CCC(C)(C)O)c2C[C@H](CO)N1C(=O)Cc1c(Cl)cccc1Cl | 9.8 |
| CS(=O)(=O)c1cccc(C(=O)O)c1 | 2.4 |
| O=C(NC1CC1)c1nc2cccnn2c1-c1ccc2ncnn2c1 | 3.9 |

Entry `COc1cc2c(cc1Cc1ccccc1)C[C@H](N)C(=O)N2OC(=O)N(C)C` ; Kp uu = 0.74

Entry `Nc1noc2ccc(-c3cc(Cl)ccc3Oc3cc(F)c(S(=O)(=O)Nc4cscn4)cc3F)cc12` ; Kp uu = 0.033

Entry `CC(=O)NS(=O)(=O)c1ccc(Oc2ccc(F)c(Cl)c2)c(C(F)(F)F)c1` ; Kp uu = 0.033

Source: ChEMBL document CHEMBL4373746
